Overview of recorded dextramer-positive events for various binders
# study.target: T1, CT45 (CT45A1, A2, A3, A5 to A10); CT45-IP peptide on HLA-A*02:01 (human)
# T1 peptide: KIFEMLEGV
# test.method.notes: CT45-IP-HLA-A*02 dextramer on T cells with TCR mRNA; TCR found by tetramer sorting; full-length, on cells
Numeric answer only, unit % assumed.

Example results:
binder	dextramer-positive events / %
TCR-10 (TCR, V domains shown) Valpha: QNIDQPTEMTATEGAIVQINCTYQTSGFNGLFWYQQHAGEAPTFLSYNVLDGLEEKGRFSSFLSRSKGYSYLLLKELQMKDSASYLCAVPAPYTGTASKLTFGTGTRLQVTL Vbeta: GVTQTPKFQVLKTGQSMTLQCAQDMNHNSMYWYRQDPGMGLRLIYYSASEGTTDKGEVPNGYNVSRLNKREFSLRLESAAPSQTSVYFCASSEGYSTYNEQFFGPGTRLTVL	52.8
TCR-5 (TCR, V domains shown) Valpha: QQLNQSPQSMFIQEGEDVSMNCTSSSIFNTWLWYKQDPGEGPVLLIALYKAGELTSNGRLTAQFGITRKDSFLNISASIPSDVGIYFCAGGYNYGQNFVFGPGTRLSVLP Vbeta: GVTQTPKHLITATGQRVTLRCSPRSGDLSVYWYQQSLDQGLQFLIQYYNGEERAKGNILERFSAQQFPDLHSELNLSSLELGDSALYFCASSAGLAGGYEQYFGPGTRLTVT	61.1

Return reported dextramer-positive events; argument: TCR-11 (TCR, V domains shown) Valpha: IQVEQSPPDLILQEGANSTLRCNFSDSVNNLQWFHQNPWGQLINLFYIPSGTKQNGRLSATTVATERYSLLYISSSQTTDSGVYFCAVNTGTASKLTFGTGTRLQVTL Vbeta: GVTQTPKFQVLKTGQSMTLQCAQDMNHNSMYWYRQDPGMGLRLIYYSASEGTTDKGEVPNGYNVSRLNKREFSLRLESAAPSQTSVYFCASSPRGQGRSYEQYFGPGTRLTVT
6.6
